Tested on: HOP-92
Assay: NCI tumour cell line growth inhibition, 48 h
Active and inactive are the calls of the source. No stated cut-off is given here; in the data, active = GI50 up to about 1.1 µM and inactive = higher.
Return exactly one item of TRUE for active, FALSE for inactive

Prompt: Assay result, entry `Oc1cc(-c2cccs2)nc2cc3c(cc12)OCO3` — outcome?
Completion: FALSE

Prompt: Assay result, entry COc1ccc(/C=c2\sc3n(c2=O)C(N)=C(C#N)C(c2ccc(OC)cc2)C=3c2nc3ccccc3[nH]2)cc1 (stereo not given) — outcome?
Completion: FALSE

Prompt: Assay result, entry C=C1CC(OC(C)=O)/C=C(/C)CCC(C(C)(C)O)CC1O (stereo not given) — outcome?
Completion: FALSE

Prompt: Assay result, entry C=C1C(O)C2(O)OCC34C(CC5C(C)=CC(=O)C(O)C5(C)C23)OC(=O)C(OC(=O)C/C=C/CCCCCCCC)C14 (stereo not given) — outcome?
Completion: TRUE

Prompt: Assay result, entry `CC(=O)Oc1ccc2c3c1O[C@H]1[C@H](O)CC[C@@]4(O)[C@@H](C2)N(C)CC[C@]314` — outcome?
Completion: FALSE

Prompt: Assay result, entry `CCOC(=O)C(=O)Nc1ccc(Cl)c(C(F)(F)F)c1` — outcome?
Completion: TRUE

Prompt: Assay result, entry Cc1ccc(S(=O)(=O)NC(=O)NC(CC(N)=O)C(=O)O)cc1 (stereo not given) — outcome?
Completion: FALSE

Prompt: Assay result, entry `Cc1cn(C(=O)NC23CC4CC(CC(C4)C2)C3)c(=O)[nH]c1=O` — outcome?
Completion: FALSE

Prompt: Assay result, entry COc1nc(NC2OCC(O)C(O)C2O)c(NC2OCC(O)C(O)C2O)c(=O)n1C (stereo not given) — outcome?
Completion: FALSE

Prompt: Assay result, entry COc1ccc(C2(O)c3ccccc3C(=O)N(C)C2(O)c2ccc(OC)cc2)cc1 (stereo not given) — outcome?
Completion: FALSE

Prompt: Assay result, entry `CC1(C)C(=O)/C(=C/c2ccccc2)C(C)(C)C1(C)C` — outcome?
Completion: FALSE

Prompt: Assay result, entry `O=C(O)CN(CC(=O)O)Cc1cc(C#Cc2ccc(C#Cc3ccccc3)cc2)cc(CN(CC(=O)O)CC(=O)O)n1` — outcome?
Completion: FALSE

Prompt: Assay result, entry COC(=O)C(Cc1nc2ccccc2nc1O)C(=O)C(=O)Nc1ccc(OC)cc1[N+](=O)[O-] (stereo not given) — outcome?
Completion: FALSE

Prompt: Assay result, entry CC1=NN(c2cccc(Cl)c2)C2(SCC(=O)N2c2nc3ccccc3s2)/C1=C\c1ccc(Cl)cc1 (stereo not given) — outcome?
Completion: FALSE

Prompt: Assay result, entry `Nc1ccc(C(=O)O)cc1` — outcome?
Completion: FALSE

Prompt: Assay result, entry `CS(=O)(=O)OCCCSCCSCCCOS(C)(=O)=O` — outcome?
Completion: FALSE

Prompt: Assay result, entry `O=C(O)c1nc(-c2ccccn2)c(-c2ccccn2)nc1C(=O)O` — outcome?
Completion: FALSE

Prompt: Assay result, entry CCOC(=O)N[C@@H]1C2CC(=O)C(O2)[C@@H]1OC (stereo not given in full) — outcome?
Completion: FALSE

Prompt: Assay result, entry CC12CCC(=O)C=C1CCC1C2C(O)CC2(C)C(c3csc(N)n3)CCC12.O=S(=O)(O)c1ccc(Br)cc1 (stereo not given) — outcome?
Completion: FALSE

Prompt: Assay result, entry `NCC(=O)Nc1ccc(S(=O)(=O)O)c2cc(S(=O)(=O)O)cc(S(=O)(=O)O)c12` — outcome?
Completion: FALSE
